Hello, the source for this data is patent US6344203B1, in case you need it.

# target.under.test: UniProt Q8W1R6
# Sequence (Q8W1R6 1-247): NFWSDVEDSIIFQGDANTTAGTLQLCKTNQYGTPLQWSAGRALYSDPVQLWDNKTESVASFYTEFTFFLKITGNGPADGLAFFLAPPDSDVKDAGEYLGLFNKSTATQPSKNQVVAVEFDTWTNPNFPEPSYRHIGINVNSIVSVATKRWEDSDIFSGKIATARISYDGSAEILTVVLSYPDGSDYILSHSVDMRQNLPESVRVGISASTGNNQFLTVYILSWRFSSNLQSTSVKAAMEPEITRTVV
# experiment.summary: Elisa: inhibition of IB4 lectin binding to Galα(1,3)Gal-BSA
# stated.conditions: read-out: I50 IB4
quantity: IC50 (µM)
Give a bare numeral; the unit µM is implied.

Requested read-out IC50, target or system UniProt Q8W1R6, entry OCC1OC(OCC2OC(O)C(O)C(O)C2O)C(O)C(O)C1O (centres unmarked) [Melibiose, Galα(1,6)Glc]
300

----------
# target.under.test: human anti-Galα(1,3)Gal IgG antibodies
# experiment.summary: Elisa: inhibition of anti-Galα(1,3)Gal IgG binding to Galα(1,3)Gal-BSA
# stated.conditions: Table 1; anti-Galα(1,3)Gal IgG 87 μg/ml; concentration giving 50% inhibition of binding; read-out: I50 anti-Galα(1,3)Gal IgG
quantity: pIC50
In textbook form, pIC50 equals minus log to base ten of the concentration in mol/L.

Which measured pIC50 value corresponds to OCC1OC(OC2C(O)C(O)OC(CO)C2O)C(O)C(O)C1O (centres unmarked) ?
4.52
